Experiment: Plasma pharmacokinetics, multiple ascending dose cohorts
Assay type: in vivo, human
Conditions: human, plasma, oral, 50 mg
property-measured: Vd/F (L)
The response must be a number in L with no trailing unit.

Entry Cc1cnc(-c2ccnc(C(C)(C)O)n2)cc1-n1c(C)cc(OCc2ncc(F)cc2F)c(Cl)c1=O [ATI-450] — recorded Vd/F = 586

----------
Test: Plasma pharmacokinetics, single ascending dose cohorts
Format: in vivo, human
Settings: human, plasma, oral, 10 mg
property-measured: Vd/F (L)
Unit L implied. Number only.

Quick note, Vd/F for Cc1cnc(-c2ccnc(C(C)(C)O)n2)cc1-n1c(C)cc(OCc2ncc(F)cc2F)c(Cl)c1=O [ATI-450] landed at 430

----------
Assay: Plasma pharmacokinetics, single ascending dose cohorts
Type: in vivo, human
Settings: human, plasma, oral, 100 mg
property-measured: Vd/F (L)
Please give a number only; it is taken to be in L.

Consider Cc1cnc(-c2ccnc(C(C)(C)O)n2)cc1-n1c(C)cc(OCc2ncc(F)cc2F)c(Cl)c1=O . Its measured Vd/F is 440

----------
Assay: Plasma pharmacokinetics, multiple ascending dose cohorts
Assay type: in vivo, human
Conditions: human, plasma, oral, 10 mg
property-measured: AUC

Record Cc1cnc(-c2ccnc(C(C)(C)O)n2)cc1-n1c(C)cc(OCc2ncc(F)cc2F)c(Cl)c1=O . Reported AUC: 288 ng·h/mL

----------
Assay: Plasma pharmacokinetics, single ascending dose cohorts
Format: in vivo, human
Conditions: human, plasma, oral, 50 mg
property-measured: Vd/F (L)
Only the number, expressed in L, is required.

Note to self: Vd/F recorded for Cc1cnc(-c2ccnc(C(C)(C)O)n2)cc1-n1c(C)cc(OCc2ncc(F)cc2F)c(Cl)c1=O was 445

----------
Test: Plasma pharmacokinetics, multiple ascending dose cohorts
Type: in vivo, human
Conditions: human, plasma, oral, 50 mg
property-measured: Cmax at 7 day
Please answer using the number first and the unit second.

Value of Cmax at 7 day reported for the compound Cc1cnc(-c2ccnc(C(C)(C)O)n2)cc1-n1c(C)cc(OCc2ncc(F)cc2F)c(Cl)c1=O [ATI-450] is 219 ng/mL

----------
Experiment: Plasma pharmacokinetics, single ascending dose cohorts
Assay type: in vivo, human
Settings: human, plasma, oral, 10 mg
property-measured: AUC(0-inf) (ng·h/mL)
Form entry: value (ng·h/mL) — number only.

The compound Cc1cnc(-c2ccnc(C(C)(C)O)n2)cc1-n1c(C)cc(OCc2ncc(F)cc2F)c(Cl)c1=O showed AUC(0-inf) equal to 285

----------
Test: Plasma pharmacokinetics, multiple ascending dose cohorts
Type: in vivo, human
Conditions: human, plasma, oral, 30 mg
property-measured: Cmax at 7 day (ng/mL)
Give the value, in units of ng/mL, as a plain number.

Field Cmax at 7 day (entry Cc1cnc(-c2ccnc(C(C)(C)O)n2)cc1-n1c(C)cc(OCc2ncc(F)cc2F)c(Cl)c1=O [ATI-450] ) reads 146

----------
Experiment: Plasma pharmacokinetics, single ascending dose cohorts
Format: in vivo, human
Conditions: human, plasma, oral, 10 mg
property-measured: AUC(0-t)
# include the unit after the value

Per the records, this compound ( Cc1cnc(-c2ccnc(C(C)(C)O)n2)cc1-n1c(C)cc(OCc2ncc(F)cc2F)c(Cl)c1=O [ATI-450] ) has AUC(0-t) equal to 276 ng·h/mL

----------
Test: Plasma pharmacokinetics, single ascending dose cohorts
Format: in vivo, human
Details: human, plasma, oral
property-measured: Tmax

Documented Tmax of Cc1cnc(-c2ccnc(C(C)(C)O)n2)cc1-n1c(C)cc(OCc2ncc(F)cc2F)c(Cl)c1=O [ATI-450] : 2 to 4 h
